target: UniProtKB P14902; assay: IDO1 Cellular Assay in HeLa Cells Stimulated with IFNγ; type: cell-based; conditions: IFNγ 100 ng/mL, 300 uM L-tryptophan, about 48 hours incubation, fluorescence readout, read-out: IDO1 HeLa Cell Assay, IC50
Sequence (P14902 whole entry): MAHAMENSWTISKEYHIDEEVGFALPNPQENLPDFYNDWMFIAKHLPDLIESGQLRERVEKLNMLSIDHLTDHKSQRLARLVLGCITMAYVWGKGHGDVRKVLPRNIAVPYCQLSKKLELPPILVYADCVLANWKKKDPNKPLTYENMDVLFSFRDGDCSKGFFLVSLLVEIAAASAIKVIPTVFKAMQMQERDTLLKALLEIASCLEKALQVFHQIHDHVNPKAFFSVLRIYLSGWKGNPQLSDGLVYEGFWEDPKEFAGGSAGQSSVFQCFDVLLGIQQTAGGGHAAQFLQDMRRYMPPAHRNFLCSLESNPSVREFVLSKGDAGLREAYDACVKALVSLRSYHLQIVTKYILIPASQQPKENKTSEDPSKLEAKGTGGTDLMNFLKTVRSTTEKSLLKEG
pIC50: −log10 of the molar value.
property: pIC50

CC(C)(C)c1ccc2nc(C3(c4ccc(NC(=O)c5cccc(Cl)c5)nc4)CCC3)[nH]c2c1 [Ex. 12]
6.36
N#Cc1cnc2nc(C3(c4ccc(NC(=O)c5cccc(Cl)c5)nc4)CCC3)[nH]c2c1 [Ex. 2]
7.87
O=C(O)Cc1cccc2nc(C3(c4ccc(NC(=O)c5cccc(Cl)c5)nc4)CCC3)[nH]c12 [Ex. 33]
7.68
COC(c1ccc(NC(=O)c2cccc(C#N)c2)nc1)c1nc2cc(C(F)(F)F)cnc2[nH]1 (stereo not drawn) [Ex. 39]
6.92
Cc1cc2nc(C3(c4ccc(NC(=O)c5cccc(Cl)c5)nc4)CCC3)[nH]c2cc1C [Ex. 26]
8.02

I: O=C(Nc1ccc(C2(c3nc4cc(-n5cnnn5)ccc4[nH]3)CCC2)cn1)c1cccc(Cl)c1 [Ex. 20]
II: O=C(Nc1ccc(C2(c3nc4ccc(OC(F)F)cc4[nH]3)CCC2)cn1)c1cccc(Cl)c1 [Ex. 23]
Compare reported pIC50 values for I and II . Which is lower? Please respond with the label that marks your chosen entry.
I
(I: 6.58, II: 8.12)
